system tested: SARS-HCoV antigen(s) of unknown identity (purified whole virus, infected Vero cell lysate or infected Vero cells)
experiment: ELISA, OD on native virus against OD on heat-denatured virus

binder: F26G9 (antibody, V domains shown) VH: VQLLESGTVLARPGASVKMSCKASGYSFTSYWMHWVKQRPGQGLEWIGAIYPGNSDTSYNQKFKGKAKLTAVTSASTAYMELSSLTNEDSAVYYCTRSVYYGYGYFDVWGAGTTVTVSS VL: DILMTQSHKCMSTSVGDRVSITCKASQDVSTAVVWYQQKPGQFPKLLIYWASTRHTGVPDRFTGSGSGTDYTLTISSVQAEDLALYYCQQHYTTPYTFGGGTKLEIKR
O.D. Reduction, Percent (%): 79
//
binder: F26G7 (antibody, V domains shown) VH: VELLESGTVLARPGASVKMSCEASGYTFTTYWMHWIKQRPGQGLEWIGAIYPGNSDTTYNQKFKGKAKLTAVTSTSTAYMELSSLTNEDSAVYYCTREGIPQLLRTMDYWGQGTSVTVSS VL: ELVMTQSPSSLSASLGERVSLTCRASQEISGYLSWLQQKPDGTIKRLIYAASTLDSGVPKRFSGSRSGSDYSLTISSLESEDFADYYCLQYISYPWTFGGGTKLEIKR
O.D. Reduction, Percent (%): 80
//
binder: F26G3 (antibody, V domains shown) VH: EVRLQQSGPELVKPGASVKISCKTSGYTFTEYTMHWVKQSHGKNLEWIGGINPNNGGTTYNQKFKGKATLTVDKSSNTAYMELRSLTSEDSAVYYCSRGDYGTSYGYFDVWGAGTTVTVSS VL: DILMTQSPTSFAVSLGQRATISCRTSQSVSTSSYSYMHWYQQKPGQPPKLLIKYASNLESGVPARFSGSGSGSDFTLNIHPVEEGDTATYYCQHSWEIPCAFGGGTKLEIKR
O.D. Reduction, Percent (%): 78
